System: MOLT-4 leukemia
method summary: NCI tumour cell line growth inhibition, 48 h
metric name: GI50

COc1cc(/C=C\c2cc(OC)c(OC)c(OC)c2)cc(N/C=C\C(=O)c2ccc(OC(F)(F)F)cc2)c1OC; 3.99 µM
Cc1cc(S(=O)(=O)Nc2nc3ccccc3o2)c(SCc2ccccc2)cc1Cl; 24.4 µM
COc1ccc(C2CC(c3cccc(Nc4ccnc5cc(Cl)ccc45)c3)=NN2C=O)cc1 (configuration not stated); 0.487 µM
OCCN1CCN(CCCN2c3ccccc3Sc3ccc(Cl)cc32)CC1; 2.4 µM
CCN(Cc1ccc(C)cc1)c1ccc(CO)c(Cl)c1; 17 µM

## Task Item O=C(Oc1cccc2cccnc12)c1cc2c(cc1Cl)SC(N(c1ccc(F)cc1)S(=O)(=O)c1ccc(Br)s1)=NS2(=O)=O has what recorded GI50?
## Result 28.7 µM

## Task Item CC(=O)c1ccc2c(c1)c1cc(C(C)=O)ccc1n2CCNC(C)C has what recorded GI50?
## Result 0.337 µM

====

System: MDA-MB-231 breast
method summary: NCI tumour cell line growth inhibition, 48 h
Recorded TGI, one value per entry.

O=c1[nH]c2ccccc2c2ccccc12; > 100 µM

## Task Item CCN1C/C(=C\c2cc(OC)c(OC)cc2OC)C(=O)/C(=C/c2cc(OC)c(OC)cc2OC)C1 has what recorded TGI?
## Result 12 µM

## Task Item CC(C)(CN1CCCCC1)C(=O)/C=C/c1ccc(/C=C/C(=O)C(C)(C)CN2CCCCC2)cc1 has what recorded TGI?
## Result 0.476 µM

## Task Item OCc1cn(C(c2ccccc2)(c2ccccc2)c2ccccc2)cn1 has what recorded TGI?
## Result > 100 µM

## Task Item CCN1C(=S)N(c2ccccc2)C2NC(=S)N(/N=C/C=C/c3ccccc3OC)C21 (stereo not drawn) has what recorded TGI?
## Result > 27.4 µM

## Task Item O=C1NC(N2CCOCC2)=N/C1=C\c1ccc(Cl)cc1 has what recorded TGI?
## Result > 100 µM

## Task Item CCCCCCCCCCCCOC1C(CNC(=O)C2OC3OC(C)(C)OC3C2NC(=O)Nc2ccc(CC(=O)OC)cc2)OC2OC(C)(C)OC21 (stereo not drawn) has what recorded TGI?
## Result > 82 µM

====

Tested on: SW-620 colon
method summary: NCI tumour cell line growth inhibition, 48 h
metric name: TGI

Here is how some molecules turned out for TGI.
CCOC(=O)/C(=C/N1CCN(C(=O)c2ccco2)C1=S)C(=O)c1ccccc1; 24 µM
CC(C)OC(=O)c1ccc(CCC2=CC(=O)C=CC2=O)cc1; 19.1 µM
CN(C)C=Nc1ccn(CCO)c(=O)n1; > 100 µM
CC[C@H](C)[C@H]1NC(=O)[C@@H](NC(=O)[C@@H](CC(C)C)N(C)C(=O)C2CCCN2C(=O)[C@H](C)O)[C@@H](C)OC(=O)[C@H](Cc2ccc(OC)cc2)N(C)C(=O)[C@@H]2CCCN2C(=O)[C@H](CCCCNC(=O)OCc2ccccc2)NC(=O)[C@H](C)C(=O)[C@H](C(C)C)OC(=O)C[C@@H]1O (stereo partly drawn); > 25 µM

## Task Item N#CCCN(c1ccc(C=Nc2ccccc2)cc1)S(=O)(=O)c1ccccc1 has what recorded TGI?
## Result > 100 µM

## Task Item COc1ccccc1NC(=S)NN=C(C)c1cccc(C(C)=NNC(=S)Nc2ccccc2OC)n1 has what recorded TGI?
## Result > 100 µM

## Task Item OCCN1CCN(CCCN2c3ccccc3Sc3ccc(Cl)cc32)CC1 has what recorded TGI?
## Result 3.52 µM

## Task Item CC(C)c1[nH]nc(C(N)=O)c1N=NN(C)C has what recorded TGI?
## Result > 100 µM
